Origin of the recorded values: patent US4381301A

# PROTOCOL DETAILS: Determination of acute toxicity (LD50) in mice
# APPLIED CONDITIONS: mouse, in vivo; intravenous administration to mice; 7 days observation
READOUT TYPE: LD50 at 168 h
I'd appreciate it if you included the unit after the number.

Which LD50 at 168 h value belongs to CN1CCN(CC(=O)N2c3ccccc3NC(=O)c3cscc32)CC1 ?
190 mg/kg
